For each record, write down the corresponding Periostin (pg/mL), MRCS cells + IL-13 5 ng/mL; antibody at 2.67 nM.
Target: his-labeled human IL-13 (immunogen A) (human) (UniProt P35225)
Test: cell-based or functional assay
Note to self: number, then unit, no commentary.

Binder	Result
c29D9H8 (mouse-human chimeric IL-13 antibody) (antibody, V domains shown) VH: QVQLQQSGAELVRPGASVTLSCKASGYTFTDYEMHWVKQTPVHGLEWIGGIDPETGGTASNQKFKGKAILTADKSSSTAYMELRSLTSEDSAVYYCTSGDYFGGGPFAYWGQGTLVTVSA VL: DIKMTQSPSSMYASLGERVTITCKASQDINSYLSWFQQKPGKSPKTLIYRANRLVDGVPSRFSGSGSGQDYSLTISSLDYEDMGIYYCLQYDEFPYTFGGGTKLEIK	927 pg/mL
c70F10A10 (mouse-human chimeric IL-13 antibody) (antibody, V domains shown) VH: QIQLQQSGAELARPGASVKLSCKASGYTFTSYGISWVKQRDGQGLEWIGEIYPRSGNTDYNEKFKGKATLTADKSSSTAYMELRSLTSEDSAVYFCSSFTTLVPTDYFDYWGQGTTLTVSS VL: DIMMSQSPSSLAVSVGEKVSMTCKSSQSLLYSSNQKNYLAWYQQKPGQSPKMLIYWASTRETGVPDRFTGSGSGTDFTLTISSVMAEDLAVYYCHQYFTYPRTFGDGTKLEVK	2620 pg/mL
c28A2E11 (mouse-human chimeric IL-13 antibody) (antibody, V domains shown) VH: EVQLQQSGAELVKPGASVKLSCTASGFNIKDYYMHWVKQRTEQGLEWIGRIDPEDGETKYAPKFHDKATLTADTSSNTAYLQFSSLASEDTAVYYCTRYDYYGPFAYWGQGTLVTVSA VL: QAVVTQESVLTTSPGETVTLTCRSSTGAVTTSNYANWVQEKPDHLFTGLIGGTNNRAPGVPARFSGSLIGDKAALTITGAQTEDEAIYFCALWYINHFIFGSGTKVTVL	1100 pg/mL

[in] Field request: Periostin (pg/mL), MRCS cells + IL-13 5 ng/mL; antibody at 2.67 nM | item: c35E2C3 (mouse-human chimeric IL-13 antibody) (antibody, V domains shown) VH: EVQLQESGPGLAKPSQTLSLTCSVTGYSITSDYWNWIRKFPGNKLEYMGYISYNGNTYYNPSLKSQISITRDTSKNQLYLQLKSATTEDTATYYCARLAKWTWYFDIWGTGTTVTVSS VL: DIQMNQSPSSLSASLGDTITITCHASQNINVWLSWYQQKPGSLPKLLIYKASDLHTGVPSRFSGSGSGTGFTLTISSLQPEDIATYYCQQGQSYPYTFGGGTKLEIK
[out] 2850 pg/mL
